System: HIG-82 cells
Assay: Apoptosis by nuclear DNA fragmentation (TUNEL, flow cytometry) in HIG-82 cells
Assay type: cell-based, rabbit
Details: fragmented nuclear DNA, 53 μM
Method: Adherent HIG-82 cells were incubated at 1.0×10^5 cells/ml for 48 hours with 53 μM final concentration of SEQ ID NO:1, SEQ ID NO:2, SEQ ID NO:5 or SEQ ID NO:6. […] The percentage of cells containing nuclear DNA fragmentation was determined. […]
property-label: Induction of apoptosis in HIG-82 cells (in words)

5′ OH-GGGTGG-OH 3′ [SEQ ID NO:1]; inactive
5′ OH-GGGAGG-OH 3′ (listed as DNA, chemistry not fully specified) [SEQ ID NO:2]; inactive

---

Test system: MEG-01 cells
Test: Apoptosis by phosphatidylserine redistribution (FITC-annexin V flow cytometry) in MEG-01 cells
Assay type: cell-based, human
Settings: 26.5 μM, 48 hours; untreated cells 12%
{TEG-Chol} = cholesteryl attached through a triethyleneglycol (TEG) spacer, added as cholesteryl-TEG phosphoramidite
property-label: Percentage of positive cells for phosphatidylserine (cells in apoptosis) in MEG-01 cells
Reply with the number, then its unit.

Q) Using MEG-01 cells as the test system, report measured Percentage of positive cells for phosphatidylserine (cells in apoptosis) in MEG-01 cells of 5′ OH-GGGAGG-OH 3′ (listed as DNA, chemistry not fully specified) [SEQ ID NO:2] .
A) 12%

Q) Using MEG-01 cells as the test system, report measured Percentage of positive cells for phosphatidylserine (cells in apoptosis) in MEG-01 cells of 5′ OH-GGGTGG(TEG-cholesteryl) 3′ [SEQ ID NO:5] .
A) 27%

Q) Using MEG-01 cells as the test system, report measured Percentage of positive cells for phosphatidylserine (cells in apoptosis) in MEG-01 cells of 5′ OH-GGGTGG-OH 3′ [SEQ ID NO:1] .
A) 12%

Q) Using MEG-01 cells as the test system, report measured Percentage of positive cells for phosphatidylserine (cells in apoptosis) in MEG-01 cells of 5′ OH-GGGAGG(TEG-cholesteryl) 3′ (3' {TEG-Chol}, sugars by position and backbone not given here) [SEQ ID NO:6, 5′-OH, 3′-TEG cholesteryl synthetic oligonucleotide] .
A) 22%

---

Test system: MEG-01 cells
Assay: Apoptosis by phosphatidylserine redistribution (FITC-annexin V flow cytometry) in MEG-01 cells
Assay type: cell-based, human
Conditions: translocation of phosphatidylserine, up to 53.0 μM, 48 hours
property-label: Induction of apoptosis in MEG-01 cells (in words)

5′ OH-GGGTGG-OH 3′ [SEQ ID NO:1]; inactive
5′ OH-GGGAGG-OH 3′ (listed as DNA, chemistry not fully specified) [SEQ ID NO:2]; inactive

---

System: HIG-82 cells
Test: Apoptosis by nuclear DNA fragmentation (TUNEL, flow cytometry) in HIG-82 cells
Type: cell-based, rabbit
Conditions: 53 μM, 48 hours, TUNEL
{TEG-Chol} = cholesteryl attached through a triethyleneglycol (TEG) spacer, added as cholesteryl-TEG phosphoramidite
Can you tell me Percentage of cells containing DNA fragmentation (cells in apoptosis) in HIG-82 cells for the items I'm about to list?
All answers are understood in %, so give the number only.

Q) Name the recorded Percentage of cells containing DNA fragmentation (cells in apoptosis) in HIG-82 cells of the substance listed here: 5′ OH-GGGTGG(TEG-cholesteryl) 3′ [SEQ ID NO:5]
A) 17

Q) Name the recorded Percentage of cells containing DNA fragmentation (cells in apoptosis) in HIG-82 cells of the substance listed here: 5′ OH-GGGAGG(TEG-cholesteryl) 3′ (3' {TEG-Chol}, sugars by position and backbone not given here) [SEQ ID NO:6, 5′-OH, 3′-TEG cholesteryl synthetic oligonucleotide]
A) 18

Q) Name the recorded Percentage of cells containing DNA fragmentation (cells in apoptosis) in HIG-82 cells of the substance listed here: 5′ OH-GGGTGG-OH 3′ [SEQ ID NO:1]
A) 1

Q) Name the recorded Percentage of cells containing DNA fragmentation (cells in apoptosis) in HIG-82 cells of the substance listed here: 5′ OH-GGGAGG-OH 3′ (listed as DNA, chemistry not fully specified) [SEQ ID NO:2]
A) 1

---

Can you tell me Percentage of positive cells for phosphatidylserine (cells in apoptosis) in MEG-01 cells for the items I'm about to list?
Tested on: MEG-01 cells
Assay: Apoptosis by phosphatidylserine redistribution (FITC-annexin V flow cytometry) in MEG-01 cells
Assay type: cell-based, human
Conditions: 5.3 μM, 48 hours; untreated cells 12%
{TEG-Chol} = cholesteryl attached through a triethyleneglycol (TEG) spacer, added as cholesteryl-TEG phosphoramidite
All answers are understood in %, so give the number only.

Q) Name the recorded Percentage of positive cells for phosphatidylserine (cells in apoptosis) in MEG-01 cells of the substance listed here: 5′ OH-GGGAGG(TEG-cholesteryl) 3′ (3' {TEG-Chol}, sugars by position and backbone not given here) [SEQ ID NO:6, 5′-OH, 3′-TEG cholesteryl synthetic oligonucleotide]
A) 13

Q) Name the recorded Percentage of positive cells for phosphatidylserine (cells in apoptosis) in MEG-01 cells of the substance listed here: 5′ OH-GGGTGG(TEG-cholesteryl) 3′ [SEQ ID NO:5]
A) 12

Q) Name the recorded Percentage of positive cells for phosphatidylserine (cells in apoptosis) in MEG-01 cells of the substance listed here: 5′ OH-GGGTGG-OH 3′ [SEQ ID NO:1]
A) 12

Q) Name the recorded Percentage of positive cells for phosphatidylserine (cells in apoptosis) in MEG-01 cells of the substance listed here: 5′ OH-GGGAGG-OH 3′ (listed as DNA, chemistry not fully specified) [SEQ ID NO:2]
A) 12

---

System: MEG-01 cells
Experiment: Apoptosis by phosphatidylserine redistribution (FITC-annexin V flow cytometry) in MEG-01 cells
Type: cell-based, human
Conditions: 53.0 μM, 48 hours; untreated cells 12%
{TEG-Chol} = cholesteryl attached through a triethyleneglycol (TEG) spacer, added as cholesteryl-TEG phosphoramidite
property-label: Percentage of positive cells for phosphatidylserine (cells in apoptosis) in MEG-01 cells (%)
All answers are understood in %, so give the number only.

Q) Name the recorded Percentage of positive cells for phosphatidylserine (cells in apoptosis) in MEG-01 cells of the substance listed here: 5′ OH-GGGAGG-OH 3′ (listed as DNA, chemistry not fully specified) [SEQ ID NO:2]
A) 12

Q) Name the recorded Percentage of positive cells for phosphatidylserine (cells in apoptosis) in MEG-01 cells of the substance listed here: 5′ OH-GGGTGG-OH 3′ [SEQ ID NO:1]
A) 12

Q) Name the recorded Percentage of positive cells for phosphatidylserine (cells in apoptosis) in MEG-01 cells of the substance listed here: 5′ OH-GGGTGG(TEG-cholesteryl) 3′ [SEQ ID NO:5]
A) 42

Q) Name the recorded Percentage of positive cells for phosphatidylserine (cells in apoptosis) in MEG-01 cells of the substance listed here: 5′ OH-GGGAGG(TEG-cholesteryl) 3′ (3' {TEG-Chol}, sugars by position and backbone not given here) [SEQ ID NO:6, 5′-OH, 3′-TEG cholesteryl synthetic oligonucleotide]
A) 39

---

Can you tell me Inhibition of HIG-82 cell proliferation, inhibition (%) for the items I'm about to list?
Test system: HIG-82 cells
Test: HIG-82 synovial cell proliferation (MTT reduction)
Type: cell-based, rabbit
Details: 53 μM, 48 hours, MTT
{TEG-Chol} = cholesteryl attached through a triethylene glycol (TEG) linker
All answers are understood in %, so give the number only.

Q) Name the recorded Inhibition of HIG-82 cell proliferation, inhibition (%) of the substance listed here: 5′ OH-GGGAGG(TEG-cholesteryl) 3′ (3' {TEG-Chol}, sugars by position and backbone not given here) [SEQ ID NO:6, 5′-OH, 3′-TEG cholesteryl synthetic oligonucleotide]
A) 75

Q) Name the recorded Inhibition of HIG-82 cell proliferation, inhibition (%) of the substance listed here: 5′ OH-GGGAGG-OH 3′ (listed as DNA, chemistry not fully specified) [SEQ ID NO:2]
A) 6

Q) Name the recorded Inhibition of HIG-82 cell proliferation, inhibition (%) of the substance listed here: 5′ OH-CCACCC(TEG-cholesteryl) 3′ (3' {TEG-Chol}, sugars by position and backbone not given here) [SEQ ID NO:7]
A) 53

Q) Name the recorded Inhibition of HIG-82 cell proliferation, inhibition (%) of the substance listed here: 5′ OH-CCACCC-OH 3′ (listed as DNA, chemistry not fully specified) [SEQ ID NO:3]
A) 0

The reported measurements were obtained from patent US7635686B2.
